Biological target: T1, biotinylated hOX40L (R&D Systems, biotinylated in house) (human, UniProt P23510 51-183, biotinylated with Sulfo-NHS-LC-Biotin, sites not stated)
T1 construct: same bought protein as m10, biotinylated; also called biotinylated OX40L
T1 sequence: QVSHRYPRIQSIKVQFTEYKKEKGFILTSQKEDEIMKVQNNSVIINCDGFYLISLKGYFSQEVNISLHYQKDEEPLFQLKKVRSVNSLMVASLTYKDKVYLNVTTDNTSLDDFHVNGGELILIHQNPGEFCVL
Experiment: hOX40L/hOX40 AlphaScreen, sample heated 1 min at Tm+10 C
Experimental Readout: IC50 (nM)

1) OX40L01E07 (VHH, monovalent Nanobody from E. coli; not shown: C-terminal c-myc and His6 tag) VHH: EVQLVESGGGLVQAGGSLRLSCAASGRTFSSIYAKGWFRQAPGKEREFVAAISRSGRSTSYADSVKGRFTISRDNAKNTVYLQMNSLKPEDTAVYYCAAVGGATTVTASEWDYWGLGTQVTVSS = 0.1
2) OX40L028 (VHH, not shown: small tags and cut ends) VHH: DVQLVESGGGLVQPGGSLRLSCAASGRTFSSIYAKGWFRQAPGKEREFVAAISRSGRSTSYADSVKGRFTISRDNAKNTVYLQMNSLRPEDTAVYYCAAVGGATTVTASEWDYWGLGTLVTVSS = 0.07
